Biological target: C-C chemokine receptor type 2 (Homo sapiens, UniProt P41597)
Sequence (P41597 whole entry): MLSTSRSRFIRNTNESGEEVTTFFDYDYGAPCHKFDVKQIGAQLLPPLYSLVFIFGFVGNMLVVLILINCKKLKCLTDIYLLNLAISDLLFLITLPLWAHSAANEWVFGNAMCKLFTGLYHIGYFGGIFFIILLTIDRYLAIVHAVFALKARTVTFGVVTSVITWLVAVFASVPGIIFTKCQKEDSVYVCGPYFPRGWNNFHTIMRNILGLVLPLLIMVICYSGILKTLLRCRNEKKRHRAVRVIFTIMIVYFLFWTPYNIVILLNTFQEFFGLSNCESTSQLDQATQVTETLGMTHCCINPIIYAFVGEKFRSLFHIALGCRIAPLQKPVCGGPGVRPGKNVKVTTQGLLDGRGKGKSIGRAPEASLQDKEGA
property_label: pKi
Just the number, please; pKi means minus log10 of the concentration in mol/L.

-- ask Look up and report measured pKi (C-C chemokine receptor type 2 (Homo sapiens, UniProt P41597)) for the following compound: `O=C(/C=C/c1ccc(Cl)c(Cl)c1)N[C@H]1CC[C@H](CN2CCC(c3c[nH]c4ccc(O)cc34)CC2)CC1`
-- reply 6.50
